# Tested on: M-07e cells
# experimental_protocol: M-07e cellular assay (SCF-mediated cell proliferation)
# Assay type: cell-based
# experimental_setup: Homo sapiens, 72 hours, CellTiter Glo
Listed here are compounds together with their documented EC50.
reported_endpoint: EC50

> print(dat)
                         compound.structure  assayed.target  reported.measurement
1  Cc1ncc(-c2ccc3c(C(=O)Nc4cc(-c5noc([C@H]6C[C@@H]6F)n5)ccc4C)cnn3c2)c(C)n1     M-07e cells        100 to 1000 nM
2  Cc1nc(C)c(-c2ccn3ncc(C(=O)Nc4cc(-c5noc([C@H]6C[C@@H]6F)n5)ccc4C)c3c2)c(C)n1     M-07e cells        100 to 1000 nM
3  Cc1ccc(-c2noc(C34CC(OC(F)F)(C3)C4)n2)cc1NC(=O)c1cnn2ccc(N3CC4(COC4)C3)cc12     M-07e cells              < 100 nM
4  O=C(Nc1cc(-c2ccc(C3CC3)cn2)ccc1Cl)c1cnn2ccc(N3CC4(COC4)C3)cc12     M-07e cells             > 1000 nM

* * *

# assayed_target: Recombinant human c-KIT kinase (Homo sapiens (Human), UniProt P10721)
# Sequence (P10721 26-976): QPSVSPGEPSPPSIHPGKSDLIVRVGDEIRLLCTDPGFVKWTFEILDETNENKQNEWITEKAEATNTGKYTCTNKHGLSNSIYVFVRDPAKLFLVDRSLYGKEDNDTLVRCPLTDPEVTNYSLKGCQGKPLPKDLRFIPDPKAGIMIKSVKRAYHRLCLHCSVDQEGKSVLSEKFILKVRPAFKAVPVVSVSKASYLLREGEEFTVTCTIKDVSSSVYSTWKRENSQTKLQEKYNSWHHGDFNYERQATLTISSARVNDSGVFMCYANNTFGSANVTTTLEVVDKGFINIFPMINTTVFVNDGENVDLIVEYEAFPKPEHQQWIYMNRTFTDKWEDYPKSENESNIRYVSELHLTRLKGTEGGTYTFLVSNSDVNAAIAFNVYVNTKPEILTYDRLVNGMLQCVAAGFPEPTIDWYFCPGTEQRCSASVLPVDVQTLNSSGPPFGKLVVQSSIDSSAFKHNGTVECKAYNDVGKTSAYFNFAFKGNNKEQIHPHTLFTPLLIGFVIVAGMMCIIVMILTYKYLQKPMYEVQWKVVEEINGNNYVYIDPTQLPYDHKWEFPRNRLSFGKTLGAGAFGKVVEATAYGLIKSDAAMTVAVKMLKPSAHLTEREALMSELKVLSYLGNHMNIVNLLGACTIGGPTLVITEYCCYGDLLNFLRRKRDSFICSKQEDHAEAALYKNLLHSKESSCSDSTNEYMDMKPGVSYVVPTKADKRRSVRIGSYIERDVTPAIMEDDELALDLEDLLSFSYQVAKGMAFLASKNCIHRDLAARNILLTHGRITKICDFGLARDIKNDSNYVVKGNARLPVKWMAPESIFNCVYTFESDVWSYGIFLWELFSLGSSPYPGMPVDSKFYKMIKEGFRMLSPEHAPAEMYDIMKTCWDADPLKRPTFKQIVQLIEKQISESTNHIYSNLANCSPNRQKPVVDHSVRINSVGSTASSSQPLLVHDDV
# experimental_protocol: c-KIT kinase chemiluminescence assay (ADP-Glo)
# experimental_setup: ATP 50 μM
pIC50: −log10 of the molar value.
reported_endpoint: pIC50

> print(dat)
                                   molecule  reported.measurement
1  Cc1ncc(-c2noc(C3CN(C(=O)[C@H]4C[C@@H]4F)C3)n2)cc1NC(=O)c1cnn2ccc(N3CC4(C3)CC(O)(C(F)F)C4)cc12                < 6.00
2  Cc1ccc(-c2noc([C@H]3C[C@@H]3F)n2)cc1NC(=O)c1cnc2ncccc2c1                < 6.00
3  O=C(Nc1cc(-c2noc([C@H]3C[C@@H](OC(F)(F)F)C3)n2)ccc1Cl)c1cnn2ccc(N3CC4(COC4)C3)cc12                > 7.00
4  CC(=O)N1CCC(c2nc(-c3cnc(C)c(NC(=O)c4cnn5ccc(N6CC7(C6)CC(O)(C(F)F)C7)cc45)c3)no2)C1 (stereo not drawn)          6.00 to 7.00
5  Cc1ccc(-c2noc([C@H]3C[C@@H]3F)n2)cc1NC(=O)c1cnn2cc(-c3cnn(CC(C)(C)O)c3)ccc12                > 7.00
6  Cc1ccc(-c2noc([C@H]3C[C@@H](OC(F)F)C3)n2)cc1NC(=O)c1cnn2ccc(N3CC4CC(C3)O4)cc12                > 7.00

* * *

# Test system: M-07e cells
# experimental_protocol: M-07e cellular assay (SCF-mediated cell proliferation)
# Type: cell-based
# experimental_setup: Homo sapiens, 72 hours, CellTiter Glo
pEC50: −log10 of the molar value.
Overview of reported pEC50 across a group of molecules:
reported_endpoint: pEC50

> print(dat)
                                    molecule  reported.measurement
 1  CO[C@H]1C[C@@H](c2nc(-c3ccc(C)c(NC(=O)c4cnn5ccc(N6CC7(COC7)C6)cc45)c3)no2)C1                > 7.00
 2  Cc1ncc(-c2nnnn2C)cc1NC(=O)c1cnn2ccc(N3CC4(C3)CC(O)(C(F)F)C4)cc12                < 6.00
 3  Cc1nc(N)nc(C)c1-c1ccn2ncc(C(=O)Nc3cc(-c4noc(C5CN(C(=O)[C@H]6C[C@@H]6F)C5)n4)sc3C)c2c1                < 6.00
 4  Cc1ncc(-c2noc([C@H]3C[C@H](C(F)(F)F)C3)n2)cc1NC(=O)c1cnn2ccc(N3CC4(C3)CC(O)(C(F)F)C4)cc12                > 7.00
 5  Cc1ccc(-c2noc([C@H]3C[C@@H]3F)n2)cc1NC(=O)c1cnn2ccc(-c3cnc(N(C)C)nc3)cc12                > 7.00
 6  Cc1ncc(-c2ncc(C(F)F)cn2)cc1NC(=O)c1cnn2ccc(N3CC4(C3)CC(O)(C(F)F)C4)cc12          6.00 to 7.00
 7  Cc1ncc(-c2ncc(OC(F)F)cn2)cc1NC(=O)c1cnc(-c2ccc3c(c2)CC(=O)N3)o1          6.00 to 7.00
 8  Cc1sc(-c2cnc(C3CC3)nc2)cc1NC(=O)c1cnn2ccc(N3CC4(C3)CC(O)(C(F)F)C4)cc12                > 7.00
 9  Cc1ccc(-c2noc([C@H]3C[C@@H]3F)n2)cc1NC(=O)c1cnn2ccc(N3CC4(CCN(CC(F)F)C4)C3)cc12                > 7.00
10  Cc1ncc(-c2ccn3ncc(C(=O)Nc4cc(-c5noc([C@H]6C[C@@H]6F)n5)ccc4C)c3c2)cn1                > 7.00
11  Cc1ccc(-c2noc(C3CN(C(=O)C4CC4)C3)n2)cc1NC(=O)c1cnn2ccc(N3CC4(COC4)C3)cc12          6.00 to 7.00
12  Cc1ccc(-c2noc([C@H]3C[C@@H](OC(F)F)C3)n2)cc1NC(=O)c1cnn2ccc(N3CC4(C3)CC(O)(C(F)F)C4)cc12                > 7.00
13  Cc1ccc(-c2noc([C@H]3C[C@@H]3F)n2)cc1NC(=O)c1cnc2n1C(C)c1ccccc1-2 (stereo partly drawn)          6.00 to 7.00
14  Cc1ncc(-c2noc([C@H]3C[C@@H](OC(F)(F)F)C3)n2)cc1NC(=O)c1cnn2cc(-c3cn(CC(C)(C)O)nn3)ccc12                > 7.00
15  Cc1ccc(-c2ncc(OC(F)(F)F)cn2)cc1NC(=O)c1cnn2ccc(N3CC4(COC4)C3)cc12                > 7.00
16  CC(=O)Nc1nc(C)c(-c2ccn3ncc(C(=O)Nc4cc(-c5noc([C@H]6C[C@@H]6F)n5)ccc4C)c3c2)c(C)n1                > 7.00
17  COC(=O)N1CC(c2nc(-c3cnc(C)c(NC(=O)c4cnn5cc(-c6cn(C(F)F)nn6)ccc45)c3)no2)C1          6.00 to 7.00
18  Cc1ccc(-c2noc([C@H]3C[C@@H]3F)n2)cc1NC(=O)c1cnn2cc(-c3cn(C[C@H](C)O)nn3)ccc12                > 7.00
19  Cc1ccc(-c2ccc(C3CC3)nc2)cc1NC(=O)c1cnn2ccc(N3CC4(COC4)C3)cc12                > 7.00
20  Cc1ccc(-c2ncc(OC(F)(F)F)cn2)cc1NC(=O)c1cnn2ccc(-c3c(C)nc(N)nc3C)cc12          6.00 to 7.00
21  Cc1ccc(-c2noc([C@H]3C[C@@H](OC(F)(F)F)C3)n2)cc1NC(=O)c1cnc(-c2ccc3c(c2)CC(=O)N3)o1                > 7.00
22  Cc1ccc(-c2noc([C@H]3C[C@@H](OC(F)(F)F)C3)n2)cc1NC(=O)c1cnn2ccc(N3CC4(CN(CC(F)(F)F)C4)C3)cc12                > 7.00
23  CO[C@H]1C[C@H](c2nc(-c3ccc(C)c(NC(=O)c4cnn5ccc(N6CC7(COC7)C6)cc45)c3)no2)C1                > 7.00
24  Cc1ccc(-c2noc(C3CN(C(=O)N(C)C4CC4)C3)n2)cc1NC(=O)c1cnn2ccc(N3CC4(COC4)C3)cc12          6.00 to 7.00
25  Cc1ccc(-c2noc([C@H]3C[C@@H]3F)n2)cc1NC(=O)c1cnc(-c2ccc3oc(=O)[nH]c3c2)o1          6.00 to 7.00
26  Cc1ccc(-c2noc([C@H]3C[C@@H]3F)n2)cc1NC(=O)c1cnn2ccc(N3CC4(CN(CC(F)F)C4)C3)cc12                > 7.00
27  Cc1ncc(-c2ncc(C(F)(F)F)cn2)cc1NC(=O)c1cnn2ccc(N3CC4(C3)CC(O)(C(F)F)C4)cc12                > 7.00

* * *

# assayed_target: Recombinant human c-KIT kinase (Homo sapiens (Human))
# experimental_protocol: c-KIT kinase chemiluminescence assay (ADP-Glo)
# experimental_setup: ATP 50 μM
pIC50: −log10 of the molar value.
Each entry below carries its reported pIC50.
reported_endpoint: pIC50

> print(dat)
                          compound.structure  reported.measurement
 1  Cc1ccc(-c2ncc(C3CC3)cn2)cc1NC(=O)c1cnn2ccc(-c3c(C)nc(N)nc3C)cc12          6.00 to 7.00
 2  Cc1ccc(-c2noc([C@H]3C[C@@H]3F)n2)cc1NC(=O)c1cnc(-c2ccccc2)o1          6.00 to 7.00
 3  Cc1ccc(-c2noc([C@H]3C[C@@H]3F)n2)cc1NC(=O)c1cnn2ccc(N3CC[C@H](N)C3)cc12                > 7.00
 4  Cc1ccc(-c2noc([C@H]3C[C@@H](OC(F)(F)F)C3)n2)cc1NC(=O)c1cnn2ccc(N3CC4(COC4)C3)cc12                > 7.00
 5  Cc1ccc(-c2noc([C@H]3C[C@@H](OC(F)F)C3(C)C)n2)cc1NC(=O)c1cnn2ccc(N3CC4(CCN(CC(F)(F)F)C4)C3)cc12          6.00 to 7.00
 6  Cc1ccc(-c2noc([C@H]3C[C@@H]3F)n2)cc1NC(=O)c1cn(-c2ccccc2)nn1                < 6.00
 7  Cc1nc2cc(-c3ncc(C(=O)Nc4cc(-c5noc([C@H]6C[C@@H]6F)n5)ccc4C)o3)ccc2[nH]1                > 7.00
 8  Cc1ccc(-c2ncc(OC(F)F)cn2)cc1NC(=O)c1cnn2ccc(N3CC4(COC4)C3)cc12          6.00 to 7.00
 9  Cc1ccc(-c2noc([C@H]3C[C@@H](OC(F)(F)F)C3)n2)cc1NC(=O)c1cnn2ccc(N3CC4(C3)CC(O)(C(F)F)C4)cc12                > 7.00
10  Cc1ccc(-c2noc([C@H]3C[C@@H]3F)n2)cc1NC(=O)c1cnn2cc(-c3cnn(CCO)c3)ccc12                > 7.00
11  Cc1ncc(-c2ncc(C3CC3)cn2)cc1NC(=O)c1cnn2ccc(N3CC4(C3)CC(O)(C(F)F)C4)cc12          6.00 to 7.00
12  Cc1ccc(-c2noc([C@H]3C[C@@H]3F)n2)cc1NC(=O)c1cnc(-c2ccc3nn(CC(C)(C)O)cc3c2)o1                > 7.00
13  Cc1ccc(-c2noc([C@H]3C[C@@H]3F)n2)cc1NC(=O)c1cnn2ccc(N3CC4(CCC4)C3)cc12                > 7.00
14  Cc1ccc(-c2noc([C@H]3C[C@@H]3F)n2)cc1NC(=O)c1cnn2ccc(-c3ccc(N4CC5(COC5)C4)nc3C)cc12                > 7.00
